Attribution: patent US12084421B2

- Test summary: Microsome (S9 fraction) stability assay
- Type: in vitro ADME
- Measurement parameters: mouse S9 fraction 0.25 mg/mL, 3 μM compound, NADPH, LC-MS/MS
Assay readout: Compound remaining after 30 min in mouse S9 (%)

Cc1nc2ccc(C(C)C)cc2cc1C1=CCCCC1 : 6
CCc1nc2ccc(N(C)C)cc2cc1C1=CCCCC1 : 5
Cc1cc(C)c2cc(C3CCCCC3)c(C)nc2c1 : 100
CCCCc1ccc2nc(C)c(C3=CCCCC3)cc2c1 : 12

A: Cc1nc2ccc(N(C)C)cc2cc1C1CCCCC1
B: Cc1cc(C)c2cc(C3=CCCCC3)c(C)nc2c1
Larger number for Compound remaining after 30 min in mouse S9: A , or B ? Bench note: the answer is the label of the chosen record.
B
